Experiment: Cytotoxicity in the TK6 assay (CE, RS, RSG, RTG)
Details: human, TK6 cells without S9 mix, CE3 (%), cell viability on Day 3, 24 h treatment, -S9 mix, 711.5 μg/mL

| SMILES_INPUT | viability at 24 h, 711.5 μg/mL (%) |
| --- | --- |
| Nc1cc([N+](=O)[O-])ccc1C(=O)O | 68.7 |

====

Assay: Cytotoxicity in the TK6 assay (CE, RS, RSG, RTG)
Conditions: human, TK6 cells with rat liver S9 mix, CE0 (%), cell viability on Day 0, Short treatment, +S9 mix, dose 173.7 μg/mL
READOUT_LABEL: viability at 4 h, 173.7 μg/mL

| SMILES_INPUT | MEASUREMENT |
| --- | --- |
| Nc1cc([N+](=O)[O-])ccc1C(=O)O | 84.1% |
